Measured growth, listed per entry.
system: SN12C renal; assay: NCI-60 one-dose screen, 48 h (100 = growth as untreated, 0 = no growth, -100 = all killed); details: 10 µM unless noted
This is part of a sample that, as a whole, favours compounds with a hit. Of some 83,000 tested, about 20% had one in any assay.
Write down the numeric answer in % and omit the unit.

Guide cases for growth, answers given:
COc1ccc2c(c1)c(/C=N/Nc1ccnc3cc(Cl)ccc13)cn2C : -81.5
COCCOc1ccc2ncc(C#Cc3cncc(C(=O)Nc4ccc(CN5CCN(C)CC5)c(C(F)(F)F)c4)c3)n2n1 : 10.2
Cc1ccc(S(=O)(=O)NCCCNc2nccc(-c3[nH]c(-c4ccccc4)nc3-c3ccc(F)c(O)c3)n2)cc1 : 99.2
CC(=O)Nc1cc(N2CCOCC2)c2nc(NC(=O)c3[nH]c(C)c(Cl)c3Cl)sc2c1 : 49.8
Fc1cc(F)cc(NNC(=S)c2ccccc2)c1 : 9.96
N#Cc1c(-c2cccs2)cc(-c2cnccn2)nc1SCC(=O)N/N=C/c1ccc(Cl)cc1 : 104
CC/C(=C(/c1ccc(Cl)cc1)c1ccc(OCCN)cc1)c1ccccc1 : 104
CN1CCC[C@]2(C)[C@H]3CC[C@@H]4[C@@H]5[C@H]6OC[C@@]5(CCC6(C)C)CC[C@@]4(C)[C@]3(C)CC[C@H]2C1(C)C : 88.9

Now let's try a different one.
Given item CCOC(=O)C1=C(C)NC(C)=C(C(=O)OCc2ccccc2)C1c1cccc(C#N)c1 (centres undefined) , the value recorded as its growth is 36.5

---

test system: HOP-62 NSCLC; test: NCI-60 one-dose screen, 48 h; settings: 10 µM unless noted
This is part of a sample that, as a whole, favours compounds with a hit. Of some 83,000 tested, about 20% had one in any assay. Activity calls are given as the source filed them. The calls were made as follows: active = growth percent below 10; inactive = the rest.
Pick one: active, inactive

CCOC(=O)C1=C(C)NC(C)=C(C(=O)OC(C)C)C1c1cccc(C#N)c1 (configuration not stated) : inactive
CNC(=O)c1cc(N2CCc3cc(NC(=O)Nc4ccc(N5CCN(C)CC5)c(C(F)(F)F)c4)ccc32)ccn1 : inactive
O=C(Nc1ccccc1)Nc1nc2ccc([N+](=O)[O-])cc2[nH]1 : inactive
CCCCN1C(=O)/C(=c2\sc3n(c2=O)C2C(NN=3)N(CC)C(=O)N2CC)c2cc(C)ccc21 (configuration not stated) : inactive
O=C1/C(=C/C=C/c2ccco2)SC(=S)N1Cc1ccccc1 : inactive
CCOC(=O)c1c(N)c(C#N)cn1Cc1ccc(Cl)cc1Cl : inactive
N#Cc1c(-c2ccc(Br)cc2)cc(-c2c[nH]c3ccccc23)nc1N : inactive
O=C(COc1ccc(/C=C2\C(=O)Nc3ccc(Cl)cc32)cc1)Nc1ccc(Cl)cc1 : inactive

Request: Record request — test call for "N#Cc1c(-c2cccs2)c(C#N)c(=O)n(Cc2nc3ccccc3[nH]2)c1N"
Response: inactive

---

System: U251 CNS
Experiment: NCI-60 one-dose screen, 48 h (100 = growth as untreated, 0 = no growth, -100 = all killed)
Settings: 10 µM unless noted
Method: Growth inhibition of the U251 human tumor cell line is measured as a screen for anti-cancer activity. Cells are grown in 96 well plates and exposed to the test compound for 48 hours. Compounds are tested at a single concentration, which is 10^-5 M for most compounds. The reported endpoint is percent growth (GI% or GIPRCNT), where numbers from 0 - 100% represent growth inhibition, and numbers from -100% - 0 represent cell death. For example, a value of 40 represents 60% growth inhibition. […]
About 83,000 compounds went through this panel and 20% of them were active in at least one assay; those are over-represented in the sample as a whole.
ENDPOINT LABEL: growth (%)
Field: numeric (%). Do not append units.

O=C(CCl)Nc1ccc(NC(=O)c2cc(Cl)ccc2O)c(Cl)c1 : 42.8
COC(=O)N1CCN(CCNCc2ccc(NC(=O)c3ccc(C)c(C#Cc4cnc5cccnn45)c3)cc2C(F)(F)F)CC1 : 36.2
O=C(Nc1cccc(C(F)(F)F)c1)N1CCN(c2cc(-c3cn(-c4ccccc4)nc3-c3cccc(O)c3)ccn2)CC1 : 48.1
NC(N)=NS(=O)(=O)c1ccc(N=Nc2c(N)nn(-c3ccc([N+](=O)[O-])cc3[N+](=O)[O-])c2N)cc1 : 99.9
O=C1C(N2CCN(c3ccccc3)CC2)=C(Cl)C(=O)c2ncccc21 : 79.5

U251 CNS assay, compound "CCc1cc(O)ccc1Nc1cc(-c2ccc(-n3cccn3)cc2)[nH]n1" , recorded growth = 82.5

Form field, growth with U251 CNS, item "Oc1[nH]c2ccc(Cl)cc2c1N=Nc1nc(N=Nc2c(O)[nH]c3ccc(Cl)cc23)nc(N2CCCCC2)n1" : 19.8

The reported U251 CNS growth of "O=C1/C(=C/c2cc(F)cc(F)c2)Cc2cc3c(cc21)OCO3" is 43.4

Item: "Cc1ccc(Nc2nc(SC(C)C)nc(-c3ccccc3)c2C#N)cc1" | System: U251 CNS | growth: 103

---

system: T-47D breast; test: NCI-60 one-dose screen, 48 h (100 = growth as untreated, 0 = no growth, -100 = all killed); conditions: 10 µM unless noted
About 83,000 compounds went through this panel and 20% of them were active in at least one assay; those are over-represented in the sample as a whole.
Respond with Yes for growth values of 70% and above, No for values below.

Cc1ccc(/C(N)=N/C(N)=N/c2nc3ccccc3s2)cc1 : Yes
CN(C)CCCOc1ccc(C(=C(c2ccccc2)C2CCCC2)c2ccc(OCCCN(C)C)cc2)cc1 : No

Request: Answer whether growth of "Cc1ncn(-c2ccc(/C=N/Nc3ccnc4cc(Cl)ccc34)cc2)c1C" is greater than or equal to 70%.
Response: No

Request: Assess whether reported growth for "Brc1cccc(-c2cc(-c3cnc4c(c3)OCCO4)n[nH]2)c1" sits at 70% or higher.
Response: No

Request: Hi team, for "CCN(CC)c1ccc(/C=N/NC(=O)c2ccc(S(N)(=O)=O)cc2)cc1" , is the recorded growth at or above 70%?
Response: No

Request: Quick check, growth >= 70%? "N#Cc1nc(-c2ccccc2)oc1N1CCC(C2(C(F)(F)F)N=N2)CC1"
Response: Yes

Request: Test whether the compound "Oc1[nH]c2ccc(Cl)cc2c1N=Nc1nc(N=Nc2c(O)[nH]c3ccc(Cl)cc23)nc(N2CCOCC2)n1" records growth of 70% or higher.
Response: No

Request: growth >= 70% for "O=C1[C@@H]2Cc3c([nH]c4ccccc34)[C@H](c3ccc(Cl)cc3)N2C(=O)CN1C1CCN(Cc2ccccc2)CC1" ?
Response: Yes

Request: Could you please find out whether "NC(=O)n1c(=O)n(-c2cccc(C(F)(F)F)c2)c(=O)c2cc(-c3ccc(F)cc3F)ccc21" has growth that meets 70% or exceeds it?
Response: No

Request: Could you please find out whether "Cc1ccc(C)c(NC2=C(Cl)C(=O)c3nc(C)ccc3C2=O)c1" has growth that meets 70% or exceeds it?
Response: No

Request: Confirm if growth reported for the compound "NS(=O)(=O)c1nnc(/N=C/c2c(O)[nH]c3ccccc23)s1" is 70% or above.
Response: Yes

Request: Quick check: does "NCCNC(=O)c1cccc(COc2ccccc2NC(=O)c2cc(Cl)c(Cl)[nH]2)c1" have growth greater than or equal to 70%?
Response: Yes

---

tested on: SW-620 colon; assay: NCI-60 one-dose screen, 48 h (100 = growth as untreated, 0 = no growth, -100 = all killed); details: 10 µM unless noted
Compounds without any hit were thinned out: in the full panel of roughly 83,000, 20% have a hit.
ENDPOINT LABEL: growth (%)
// note: answer is a bare numeric in %

# count of solved cases: 4
CC(=C(c1ccc(OCCN2CCCC2)cc1)c1ccc(OCCN2CCCC2)cc1)c1ccc(Cl)cc1 : -73.3
O=C(CSc1nc2ccccc2c(=O)n1CCc1ccccc1)Nc1ccc(S(=O)(=O)Nc2ccc(Cl)nn2)cc1 : 91.3
CC(C)C(/C=C/c1[nH]ncc1-c1cc(Cl)ccc1O)N1CCOCC1 (stereo not given) : 98.4
CN1CCN(CCCCCC(=O)Nc2nc(-c3cccc(NS(=O)(=O)c4cccc5c(N(C)C)cccc45)c3)cs2)CC1 : 92.8

Okay, now this molecule:
Lab note: measured growth of "O=C(Nc1cccc(C(F)(F)F)c1)N1CCN(c2cc(-c3cn(-c4ccccc4)nc3-c3cccc(O)c3)ccn2)CC1" was 52.3

---

test system: A498 renal; test: NCI-60 one-dose screen, 48 h (100 = growth as untreated, 0 = no growth, -100 = all killed); conditions: 10 µM unless noted
Compounds without any hit were thinned out: in the full panel of roughly 83,000, 20% have a hit.
Label true (1) for high-side growth (at or above 80%) and false (0) for low-side growth (below it).

COc1cc(NC(=O)Nc2cccc(-c3cc(=O)c4c(OC)c(OC)c(OC)cc4o3)c2)cc(OC)c1OC : false (0)
NC1C2CCC1CN(c1cnc(C(=O)Nc3cc(F)cc4cccnc34)cn1)C2 (stereo not given) : false (0)
COc1cccc2c1C=CC1(O2)Oc2cccc(OC)c2C=C1C (stereo not given) : false (0)

Could you now consider this next compound?
Request: Has "CCCCSC1=C(Cl)CN(c2ccccc2)C1=O" a recorded growth greater than or equal to 80%?
Response: true (1)

Every entry's value here was drawn from PubChem BioAssay (NCI).
